Hello, the source for this data is patent US5340833A, in case you need it.

- ASSAYED SYSTEM: human high molecular weight urokinase (Homo sapiens)
- Construct: human high molecular weight urokinase; purchased American Diagnostica, Greenwich, Conn
- TEST: Urokinase Direct Assay
- Type: biochemical
- ASSAY CONDITIONS: read-out: uPA Direct: percentage of residual urokinase activity relative to inhibitor-free controls; heading: uPA Direct: percentage of residual urokinase activity relative to inhibitor-free controls; inhibitor concentration of 1 mM
Structures can show the parent of a compound that is named as a salt.
RECORDED ENDPOINT: residual urokinase activity at 1000 µM (%)

# MOLECULE, ASSAYED SYSTEM, RELATION, ASSAY RESULT
measured = [
    ("N=C(N)c1cc2c(C#Cc3ccccc3)cccc2s1 [Compound 76, hydrochloride]", "human high molecular weight urokinase (Homo sapiens)", "=", 1.1),
    ("COc1ccc(Br)c2sc(C(=N)N)cc12 [Compound 309, hydrochloride]", "human high molecular weight urokinase (Homo sapiens)", "=", 18),
    ("CCC(C)Cc1ccc2sc(C(=N)N)cc2c1 (racemic) [Compound 109, hydrochloride]", "human high molecular weight urokinase (Homo sapiens)", "=", 6.6),
    ("N=C(N)c1cc2c(CCC3CC3)cccc2s1 [Compound 14, hydrochloride]", "human high molecular weight urokinase (Homo sapiens)", "=", 0.54),
    ("N=C(N)c1cc2c(Cl)c(I)ccc2s1 [Compound 203, hydrochloride]", "human high molecular weight urokinase (Homo sapiens)", "=", 3.5),
    ("CC(C)CCc1ccc2sc(C(=N)N)cc2c1 [Compound 110, hydrochloride]", "human high molecular weight urokinase (Homo sapiens)", "=", 4.2),
    ("CC(c1ccccc1)c1cccc2sc(C(=N)N)cc12 (stereo not shown) [Compound 16, hydrochloride]", "human high molecular weight urokinase (Homo sapiens)", "=", 1.4),
    ("COc1ccc(-c2cccc3sc(C(=N)N)cc23)cc1 [Compound 45, hydrochloride]", "human high molecular weight urokinase (Homo sapiens)", "=", 6),
    ("COc1cccc2sc(C(=N)N)cc12 [Compound 57, hydrochloride]", "human high molecular weight urokinase (Homo sapiens)", "=", 12),
    ("N=C(N)c1cc2c(C(F)(F)F)cccc2s1 [Compound 54, hydrochloride]", "human high molecular weight urokinase (Homo sapiens)", "=", 2.4),
    ("N=C(N)NC(=O)c1cc2ccccc2s1 [Compound 320, hydrochloride]", "human high molecular weight urokinase (Homo sapiens)", "=", 84),
    ("CCCCc1ccc2sc(C(=N)N)cc2c1 [Compound 108, hydrochloride]", "human high molecular weight urokinase (Homo sapiens)", "=", 3.4),
    ("N=C(N)c1cc2cc(CCC3CC3)ccc2s1 [Compound 112, hydrochloride]", "human high molecular weight urokinase (Homo sapiens)", "=", 3.3),
    ("N=C(N)c1cc2ccc(I)cc2s1 [Compound 301, hydrochloride]", "human high molecular weight urokinase (Homo sapiens)", "=", 13.7),
    ("N=C(N)c1ccc2sccc2c1 [Compound 314, hydrochloride]", "human high molecular weight urokinase (Homo sapiens)", "=", 43),
    ("N=C(N)Nc1cc2ccccc2s1 [Compound 319, hydrochloride]", "human high molecular weight urokinase (Homo sapiens)", ">", 90),
    ("N=C(N)c1ccc2ccsc2c1 [Compound 315, hydrochloride]", "human high molecular weight urokinase (Homo sapiens)", "=", 21),
    ("N=C(N)c1cc2c(C=C(Br)Br)cccc2s1 [Compound 38, hydrochloride]", "human high molecular weight urokinase (Homo sapiens)", "=", 4.8),
    ("N=C(N)c1cc2c(N3CCOCC3)cccc2s1 [Compound 62, hydrochloride]", "human high molecular weight urokinase (Homo sapiens)", "=", 3.6),
]

###

- ASSAYED SYSTEM: human two-chain tPA (Homo sapiens)
- Construct: human two-chain tPA was substituted for urokinase; purchased American Diagnostica
- Sequence (P00750 311-562 limits assumed): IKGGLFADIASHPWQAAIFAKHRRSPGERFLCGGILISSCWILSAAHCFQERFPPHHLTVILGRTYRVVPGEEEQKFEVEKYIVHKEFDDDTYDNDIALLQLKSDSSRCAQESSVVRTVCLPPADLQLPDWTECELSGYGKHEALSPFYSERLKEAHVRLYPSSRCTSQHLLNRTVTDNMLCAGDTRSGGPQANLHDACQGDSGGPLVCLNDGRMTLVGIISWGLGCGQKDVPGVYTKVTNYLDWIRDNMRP
- Sequence (P00750 36-310 limits assumed): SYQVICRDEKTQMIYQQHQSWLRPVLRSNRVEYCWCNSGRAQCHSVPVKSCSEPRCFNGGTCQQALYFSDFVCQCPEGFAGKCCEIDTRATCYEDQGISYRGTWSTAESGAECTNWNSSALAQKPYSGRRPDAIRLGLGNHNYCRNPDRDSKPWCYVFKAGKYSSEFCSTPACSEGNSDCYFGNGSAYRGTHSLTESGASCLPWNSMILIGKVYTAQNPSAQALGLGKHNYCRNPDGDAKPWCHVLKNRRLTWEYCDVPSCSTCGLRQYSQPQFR
- TEST: tPA Indirect (Plasminogen-Linked) Assay (tPA Direct Assay result where lower)
- Type: biochemical
- ASSAY CONDITIONS: tPA Indirect Plasminogen-Linked Assay; in rare cases direct assay result if lower; read-out: tPA IC50
pIC50: −log10 of the molar value. Counter-ions that a name gives are not always drawn.
Rule: pIC50 under 4 gives false, otherwise true.

# COMPOUND, GROUP LABEL
rows = [
    ("C#Cc1cccc2sc(C(=N)N)cc12.Cl [Compound 39, hydrochloride]", "false"),
    ("N=C(N)c1ccc(/C=C/c2ccc3sc(C(=N)N)cc3c2)cc1 [Compound 122, bis-hydrochloride]", "true"),
    ("N=C(N)c1cc2c(C=Cc3ccccc3)cccc2s1 [Compound 63, hydrochloride]", "true"),
    ("CCC/C=C/c1cccc2sc(C(=N)N)cc12.Cl [Compound 25, hydrochloride]", "true"),
    ("Cl.N=C(N)c1cc2c(-c3cccs3)cccc2s1 [Compound 50, hydrochloride]", "true"),
    ("Cl.N=C(N)c1cc2c(-c3ccco3)cccc2s1 [Compound 49, hydrochloride]", "true"),
    ("Cl.N=C(N)c1cc2c(CO)cccc2s1 [Compound 56, hydrochloride]", "false"),
    ("CCc1cccc2sc(C(=N)N)cc12.Cl [Compound 7, hydrochloride]", "false"),
]

###

IC50: recorded values
- ASSAYED SYSTEM: human plasmin (Homo sapiens, UniProt P00747)
- Construct: plasmin, the potent general protease produced by cleavage of plasminogen by either urokinase or tPA; purchased American Diagnostica
- Sequence (P00747 581-810 limits assumed): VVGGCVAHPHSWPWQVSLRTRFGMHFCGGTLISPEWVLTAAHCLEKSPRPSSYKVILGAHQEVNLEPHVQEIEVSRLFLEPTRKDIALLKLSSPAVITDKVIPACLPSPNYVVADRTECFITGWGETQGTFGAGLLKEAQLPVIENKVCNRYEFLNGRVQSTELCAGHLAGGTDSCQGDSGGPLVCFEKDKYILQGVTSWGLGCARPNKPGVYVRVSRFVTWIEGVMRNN
- Sequence (P00747 97-580 limits assumed): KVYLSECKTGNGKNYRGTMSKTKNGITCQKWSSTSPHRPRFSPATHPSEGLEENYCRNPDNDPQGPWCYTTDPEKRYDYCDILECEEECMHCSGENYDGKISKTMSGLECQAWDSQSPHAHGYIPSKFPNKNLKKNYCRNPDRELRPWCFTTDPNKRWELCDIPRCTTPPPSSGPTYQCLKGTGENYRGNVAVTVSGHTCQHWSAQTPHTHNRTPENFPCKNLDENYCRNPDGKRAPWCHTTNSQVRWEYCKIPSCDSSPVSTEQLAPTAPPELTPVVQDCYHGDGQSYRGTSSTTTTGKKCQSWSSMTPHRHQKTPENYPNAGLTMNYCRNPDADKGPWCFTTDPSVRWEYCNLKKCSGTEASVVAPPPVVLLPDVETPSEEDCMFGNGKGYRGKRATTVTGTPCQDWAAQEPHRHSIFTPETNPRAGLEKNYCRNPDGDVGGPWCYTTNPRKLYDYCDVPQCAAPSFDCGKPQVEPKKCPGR
- TEST: Plasmin Assay
- Assay type: biochemical
- ASSAY CONDITIONS: read-out: PLASMIN IC50
Counter-ions that a name gives are not always drawn.

# COMPOUND, IC50, µM
records = [
    ("Cl.N=C(N)c1cc2c(I)cccc2s1 [Compound 5, hydrochloride]", 352),
    ("Cl.N=C(N)c1cc2c(-c3ccco3)cccc2s1 [Compound 49, hydrochloride]", 360),
    ("Cl.Cl.N=C(N)c1cc2c(-c3cccnc3)cccc2s1 [Compound 48, bis-hydrochloride]", 341),
    ("CCCCCCc1cccc2sc(C(=N)N)cc12.Cl [Compound 13, hydrochloride]", 195),
    ("N=C(N)c1ccc(-c2ccc(-c3cccc4sc(C(=N)N)cc34)o2)cc1 [Compound 53, bis-hydrochloride]", 47),
    ("Cl.N=C(N)c1cc2c(-c3cc4ccccc4o3)cccc2s1 [Compound 51, hydrochloride]", 745),
    ("CCC/C=C/c1cccc2sc(C(=N)N)cc12.Cl [Compound 25, hydrochloride]", 206),
    ("CCCCc1cccc2sc(C(=N)N)cc12.Cl [Compound 10, hydrochloride]", 381),
    ("N=C(N)c1cc2c(C=Cc3ccc4c(c3)OCCO4)cccc2s1 [Compound 66, hydrochloride]", 174),
    ("CC(C)C=Cc1cccc2sc(C(=N)N)cc12 [Compound 22, hydrochloride]", 244),
    ("C=CCc1cccc2sc(C(=N)N)cc12.Cl [Compound 19, hydrochloride]", 505),
    ("CC(C)CCc1cccc2sc(C(=N)N)cc12.Cl [Compound 12, hydrochloride]", 288),
]

###

residual urokinase activity at 1000 µM: recorded values
- ASSAYED SYSTEM: human high molecular weight urokinase (Homo sapiens)
- Construct: human high molecular weight urokinase; purchased American Diagnostica, Greenwich, Conn
- TEST: Urokinase Direct Assay
- Type: biochemical
- ASSAY CONDITIONS: read-out: uPA Direct: percentage of residual urokinase activity relative to inhibitor-free controls; heading: uPA Direct: percentage of residual urokinase activity relative to inhibitor-free controls; inhibitor concentration of 1 mM
Where a name gives a salt, the structure may show the parent alone.

# COMPOUND, ASSAYED SYSTEM, residual urokinase activity at 1000 µM
records = [
    ("N=C(N)c1cc2cc(Cl)ccc2s1 [Compound 102, hydrochloride]", "human high molecular weight urokinase (Homo sapiens)", "2.9%"),
    ("N=C(N)c1cc2c(/C=C/CCCO)cccc2s1 [Compound 32, hydrochloride]", "human high molecular weight urokinase (Homo sapiens)", "0.67%"),
    ("Cc1c(C(=N)N)sc2ccccc12 [Compound 304, hydrochloride]", "human high molecular weight urokinase (Homo sapiens)", "75%"),
    ("N=C(N)c1cc2c(CCc3ccccc3)cccc2s1 [Compound 15, hydrochloride]", "human high molecular weight urokinase (Homo sapiens)", "0.35%"),
    ("CCC(C)=Cc1ccc2sc(C(=N)N)cc2c1 [Compound 118, hydrochloride]", "human high molecular weight urokinase (Homo sapiens)", "1.2%"),
    ("N=C(N)c1cc2cc(-c3cccs3)ccc2s1 [Compound 127, hydrochloride]", "human high molecular weight urokinase (Homo sapiens)", "1.1%"),
    ("COc1c(Br)cc(Br)c2sc(C(=N)N)cc12 [Compound 311, hydrochloride]", "human high molecular weight urokinase (Homo sapiens)", "18%"),
    ("CC(C)c1cccc2sc(C(=N)N)cc12 [Compound 8, hydrochloride]", "human high molecular weight urokinase (Homo sapiens)", "0.9%"),
    ("CCC(C)Cc1cccc2sc(C(=N)N)cc12 (racemic) [Compound 11, hydrochloride]", "human high molecular weight urokinase (Homo sapiens)", "2.3%"),
    ("N=C(N)c1cc2cc(F)ccc2s1 [Compound 101, hydrochloride]", "human high molecular weight urokinase (Homo sapiens)", "12.7%"),
    ("C=C(C)c1ccc2sc(C(=N)N)cc2c1 [Compound 115, hydrochloride]", "human high molecular weight urokinase (Homo sapiens)", "1.2%"),
    ("N=C(N)c1cc2cc(C(F)(F)F)ccc2s1 [Compound 129, hydrochloride]", "human high molecular weight urokinase (Homo sapiens)", "8.2%"),
]
